Molecular target: T1, soluble human FcRn (shFcRn) (human, UniProt P55899 24-297; P61769 21-119)
T1 construct: Biotinylated for the ELISA, amine-coupled to a CM5 chip for SPR; also called biotinylated shFcRn
T1 sequence (P55899 24-297 limits assumed, chain 1 of 2): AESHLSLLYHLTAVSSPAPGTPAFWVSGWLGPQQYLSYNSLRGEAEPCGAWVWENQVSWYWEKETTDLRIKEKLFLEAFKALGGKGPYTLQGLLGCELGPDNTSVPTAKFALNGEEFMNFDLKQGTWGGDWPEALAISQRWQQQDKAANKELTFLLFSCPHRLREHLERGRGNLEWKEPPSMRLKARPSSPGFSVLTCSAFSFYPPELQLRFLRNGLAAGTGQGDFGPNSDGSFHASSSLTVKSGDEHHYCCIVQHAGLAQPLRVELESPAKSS
T1 sequence (P61769 21-119 limits assumed, chain 2 of 2): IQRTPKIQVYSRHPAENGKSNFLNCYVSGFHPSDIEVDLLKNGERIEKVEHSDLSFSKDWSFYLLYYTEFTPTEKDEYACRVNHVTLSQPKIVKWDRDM
Experiment: SPR pH 6
Bridge positions count the residues as written; N and C are the ends. Square brackets hold non-standard residues; d marks the D form. Ends that are not written are not given here. Pen = CC(C)(S)[C@H](N)C(=O)O

binder	measurement.units	Kd
QRF[Pen]TGHFGGHYPCNGP-NH2 (disulfide 4-14; N-terminus assumed; SMILES C[C@@H](O)[C@@H]1NC(=O)[C@@H](NC(=O)[C@H](Cc2ccccc2)NC(=O)[C@H](CCCNC(=N)N)NC(=O)[C@@H](N)CCC(N)=O)C(C)(C)SSC[C@@H](C(=O)N[C@@H](CC(N)=O)C(=O)NCC(=O)N2CCC[C@H]2C(N)=O)NC(=O)[C@@H]2CCCN2C(=O)[C@H](Cc2ccc(O)cc2)NC(=O)[C@H](Cc2c[nH]cn2)NC(=O)CNC(=O)CNC(=O)[C@H](Cc2ccccc2)NC(=O)[C@H](Cc2c[nH]cn2)NC(=O)CNC1=O) [Peptide No. 84]	nM	380
QRF[Pen]TGHFGGFYPCNGP-NH2 (disulfide 4-14; N-terminus assumed; SMILES C[C@@H](O)[C@@H]1NC(=O)[C@@H](NC(=O)[C@H](Cc2ccccc2)NC(=O)[C@H](CCCNC(=N)N)NC(=O)[C@@H](N)CCC(N)=O)C(C)(C)SSC[C@@H](C(=O)N[C@@H](CC(N)=O)C(=O)NCC(=O)N2CCC[C@H]2C(N)=O)NC(=O)[C@@H]2CCCN2C(=O)[C@H](Cc2ccc(O)cc2)NC(=O)[C@H](Cc2ccccc2)NC(=O)CNC(=O)CNC(=O)[C@H](Cc2ccccc2)NC(=O)[C@H](Cc2c[nH]cn2)NC(=O)CNC1=O) [Peptide No. 115]	nM	400
QRF[Pen]TGHFGGLYPCNGP-NH2 (disulfide 4-14; N-terminus assumed; SMILES CC(C)C[C@@H]1NC(=O)CNC(=O)CNC(=O)[C@H](Cc2ccccc2)NC(=O)[C@H](Cc2c[nH]cn2)NC(=O)CNC(=O)[C@H]([C@@H](C)O)NC(=O)[C@@H](NC(=O)[C@H](Cc2ccccc2)NC(=O)[C@H](CCCNC(=N)N)NC(=O)[C@@H](N)CCC(N)=O)C(C)(C)SSC[C@@H](C(=O)N[C@@H](CC(N)=O)C(=O)NCC(=O)N2CCC[C@H]2C(N)=O)NC(=O)[C@@H]2CCCN2C(=O)[C@H](Cc2ccc(O)cc2)NC1=O) [Peptide No. 32]	nM	250
